- Measured On: Laminin 421/521
- Protocol Details: phage display, NGS count
Readout Type: Count

GWTSDLSRNVRG | 28

1: HASNQRV
2: WSPANGWRHQTI
Challenge: API: POST /compare with 1 and 2 ; response names the item with higher Count. Answer with the label corresponding to your selection.
Response given: 1
